# credit: ChEMBL document CHEMBL1135620

Subject of test: fMet-Leu-Phe receptor (Homo sapiens) (UniProt P21462)
Sequence (whole entry): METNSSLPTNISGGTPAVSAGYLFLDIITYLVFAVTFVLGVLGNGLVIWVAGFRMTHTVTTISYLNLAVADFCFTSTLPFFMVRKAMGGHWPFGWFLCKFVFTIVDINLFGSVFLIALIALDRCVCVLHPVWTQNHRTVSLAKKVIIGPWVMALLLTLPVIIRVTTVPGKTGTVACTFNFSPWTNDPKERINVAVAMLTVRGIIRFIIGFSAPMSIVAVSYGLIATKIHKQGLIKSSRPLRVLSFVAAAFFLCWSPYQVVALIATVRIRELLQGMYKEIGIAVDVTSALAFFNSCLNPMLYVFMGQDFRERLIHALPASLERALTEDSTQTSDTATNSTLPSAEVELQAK
Experimental protocol: Inhibitory activity against Human formylpeptide receptor (FPR) of human leukemia HL-60 cells
Type: cell-based
Observable: IC20

Guide cases for IC20, answers given:
{"Smiles data": "C/C=C/C[C@@H](C)[C@@H](O)[C@H]1C(=O)N[C@@H]([C@@H](C)O)C(=O)N(C)CC(=O)N[C@@H](C(C)C)C(=O)N[C@H](C(C)C)C(=O)N(C)[C@H](CC(C)C)C(=O)N[C@@H](C)C(=O)N[C@H](C)C(=O)N(C)[C@@H](CC(C)C)C(=O)N(C)[C@@H](CC(C)C)C(=O)N(C)[C@@H](C(C)C)C(=O)N1C", "Subject of test": "fMet-Leu-Phe receptor (Homo sapiens) (UniProt P21462)", "Observable": "IC20", "Observed value": "> 10 µM"}
{"Smiles data": "C/C=C/C[C@@H](C)[C@@H](O)[C@H]1C(=O)N[C@@H](CC)C(=O)N(C)CC(=O)N(C)[C@H](CC(C)C)C(=O)N[C@H](C(C)C)C(=O)N(C)[C@H](CC(C)C)C(=O)N[C@@H](C)C(=O)N[C@H](C)C(=O)N(C)[C@@H](CC(C)C)C(=O)N(C)[C@@H](CC(C)C)C(=O)N[C@@H](C(C)C)C(=O)N1C", "Subject of test": "fMet-Leu-Phe receptor (Homo sapiens) (UniProt P21462)", "Observable": "IC20", "Observed value": "3.8 µM"}

// moving on: another record for IC20
Problem: Supply measured IC20 of CC/C=C/C[C@@H](C)[C@@H](O)[C@H]1C(=O)N[C@@H](CC)C(=O)N(C)CC(=O)N(C)[C@H](CC(C)C)C(=O)N[C@H](C(C)C)C(=O)N(C)[C@@H](C)C(=O)N[C@@H](C)C(=O)N[C@H](C)C(=O)N(C)[C@@H](CC(C)C)C(=O)N(C)[C@@H](CC(C)C)C(=O)N(C)[C@@H](C(C)C)C(=O)N1C in your reply.
Solution: > 10 µM

###

Subject of test: fMet-Leu-Phe receptor (Homo sapiens, UniProt P21462)
Sequence (P21462 whole entry): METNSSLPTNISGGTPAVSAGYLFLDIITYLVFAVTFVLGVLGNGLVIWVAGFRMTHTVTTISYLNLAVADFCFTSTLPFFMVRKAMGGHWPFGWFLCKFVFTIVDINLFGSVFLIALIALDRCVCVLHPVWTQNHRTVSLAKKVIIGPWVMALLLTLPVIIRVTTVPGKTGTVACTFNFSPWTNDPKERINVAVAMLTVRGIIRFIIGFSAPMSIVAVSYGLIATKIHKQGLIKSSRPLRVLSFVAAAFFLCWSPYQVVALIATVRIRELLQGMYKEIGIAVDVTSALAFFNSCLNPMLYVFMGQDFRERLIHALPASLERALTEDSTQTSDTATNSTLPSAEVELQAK
Experimental protocol: Inhibitory activity against human formylpeptide receptor (FPR) of human leukemia HL-60 cells
Type: cell-based
Observable: pIC50
Note on pIC50: it is the negative log10 of concentration, concentration in mol/L.

{"Smiles data": "C/C=C/C[C@@H](C)[C@@H](O)[C@H]1C(=O)N[C@@H]([C@@H](C)O)C(=O)N(C)CC(=O)N(C)[C@@H](CC(C)C)C(=O)N[C@@H](CC(C)C)C(=O)N(C)[C@@H](CC(C)C)C(=O)N[C@@H](C)C(=O)N[C@](O)(C(C)C)C(=O)N(C)[C@@H](CC(C)C)C(=O)N[C@@H](CC(C)C)C(=O)N(C)[C@@H](C(C)C)C(=O)N1C", "Subject of test": "fMet-Leu-Phe receptor (Homo sapiens, UniProt P21462)", "Observable": "pIC50", "Observed value": 6.24}

// moving on: another record for pIC50
Problem: Supply measured pIC50 of C/C=C/C[C@@H](C)[C@@H](O)[C@H]1C(=O)N[C@@H]([C@@H](C)O)C(=O)N(C)CC(=O)N(C)[C@@H](CC(C)C)C(=O)N[C@@H]([C@@H](C)CC)C(=O)N(C)[C@@H](CC(C)C)C(=O)N[C@@H](C)C(=O)N[C@](O)(C(C)C)C(=O)N(C)[C@@H](CC(C)C)C(=O)N[C@@H](CC(C)C)C(=O)N(C)[C@@H](C(C)C)C(=O)N1C in your reply.
Solution: 6.12

###

Subject of test: fMet-Leu-Phe receptor (Homo sapiens)
Experimental protocol: Inhibitory activity against human formylpeptide receptor (FPR) of human leukemia HL-60 cells
Type: cell-based
Experimental conditions: hl-60
Observable: IC50

{"Compound": "C/C=C/C[C@@H](C)[C@@H](O)C1NC(=O)[C@H](C(C)C)N(C)C(=O)[C@H](CC(C)C)N(C)C(=O)[C@H](CC(C)C)N(C)C(=O)[C@@H](C)NC(=O)[C@H](C)NC(=O)[C@@H](CC(C)C)N(C)C(=O)[C@@H](C(C)C)NC(=O)[C@@H](CC(C)C)N(C)C(=O)CN(C)C(=O)[C@H](CC)NC1=O (stereo partly drawn)", "Subject of test": "fMet-Leu-Phe receptor (Homo sapiens)", "IC50": "6.45 µM"}
{"Compound": "C/C=C/C[C@@H](C)[C@@H](O)[C@H]1C(=O)N[C@@H](CC)C(=O)N(C)CC(=O)N(C)[C@@H](CC(C)C)C(=O)N[C@@H](C(C)C)C(=O)N(C)[C@@H](CC(C)C)C(=O)N[C@@H](C)C(=O)N[C@H](C)C(=O)N(C)[C@@H](CC(C)C)C(=O)N(C)[C@@H](CC(C)C)C(=O)N(C)[C@@H]([C@@H](C)CC)C(=O)N1C", "Subject of test": "fMet-Leu-Phe receptor (Homo sapiens)", "IC50": "> 10 µM"}

// moving on: another record for IC50
Problem: Supply measured IC50 of C/C=C/C[C@@H](C)[C@@H](O)[C@H]1C(=O)N[C@@H](CC)C(=O)N(C)CC(=O)N[C@@H]([C@@H](C)CC)C(=O)N[C@@H](C(C)C)C(=O)N(C)[C@@H](CC(C)C)C(=O)N[C@@H](C)C(=O)N[C@H](C)C(=O)N(C)[C@@H](CC(C)C)C(=O)N(C)[C@@H](CC(C)C)C(=O)N(C)[C@@H](C(C)C)C(=O)N1C in your reply.
Solution: > 5 µM

###

Subject of test: fMet-Leu-Phe receptor (Homo sapiens) (UniProt P21462)
Sequence (whole entry): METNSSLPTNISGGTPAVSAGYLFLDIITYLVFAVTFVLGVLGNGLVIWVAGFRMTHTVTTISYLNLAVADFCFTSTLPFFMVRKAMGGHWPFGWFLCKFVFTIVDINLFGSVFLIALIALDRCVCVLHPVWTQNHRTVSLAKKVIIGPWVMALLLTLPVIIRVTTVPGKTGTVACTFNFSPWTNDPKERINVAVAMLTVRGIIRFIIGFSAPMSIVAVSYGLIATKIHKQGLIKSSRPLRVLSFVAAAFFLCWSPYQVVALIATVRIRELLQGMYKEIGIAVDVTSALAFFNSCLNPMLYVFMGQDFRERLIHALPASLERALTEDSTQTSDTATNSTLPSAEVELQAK
Experimental protocol: Inhibitory activity against Human formylpeptide receptor (FPR) of human leukemia HL-60 cells
Format: cell-based
Observable: IC20 (µM)
# output: bare number, implied unit µM

{"Smiles data": "C/C=C/C[C@@H](C)[C@@H](O)[C@H]1C(=O)N[C@@H](C(C)C)C(=O)N(C)CC(=O)N(C)[C@H](CC(C)C)C(=O)N[C@H](C(C)C)C(=O)N(C)[C@H](CC(C)C)C(=O)N[C@@H](C)C(=O)N[C@H](C)C(=O)N(C)[C@@H](CC(C)C)C(=O)N[C@@H](CC(C)C)C(=O)N(C)[C@@H](C(C)C)C(=O)N1C", "Subject of test": "fMet-Leu-Phe receptor (Homo sapiens) (UniProt P21462)", "Observable": "IC20", "Measurement units": "µM", "Observed value": 1.4}

Problem: Supply measured IC20 of CC/C=C/C[C@@H](C)[C@@H](O)[C@H]1C(=O)N[C@@H](CC)C(=O)N(C)CC(=O)N(C)[C@@H]([C@@H](C)CC)C(=O)N[C@H](C(C)C)C(=O)N(C)[C@H](CC(C)C)C(=O)N[C@@H](C)C(=O)N[C@H](C)C(=O)N(C)[C@@H](CC(C)C)C(=O)N(C)[C@@H](CC(C)C)C(=O)N(C)[C@@H](C(C)C)C(=O)N1C in your reply.
Solution: 1
